- Test Target: Lysosomal acid glucosylceramidase (Homo sapiens) (UniProt P04062)
- Sequence (P04062 whole entry N409S): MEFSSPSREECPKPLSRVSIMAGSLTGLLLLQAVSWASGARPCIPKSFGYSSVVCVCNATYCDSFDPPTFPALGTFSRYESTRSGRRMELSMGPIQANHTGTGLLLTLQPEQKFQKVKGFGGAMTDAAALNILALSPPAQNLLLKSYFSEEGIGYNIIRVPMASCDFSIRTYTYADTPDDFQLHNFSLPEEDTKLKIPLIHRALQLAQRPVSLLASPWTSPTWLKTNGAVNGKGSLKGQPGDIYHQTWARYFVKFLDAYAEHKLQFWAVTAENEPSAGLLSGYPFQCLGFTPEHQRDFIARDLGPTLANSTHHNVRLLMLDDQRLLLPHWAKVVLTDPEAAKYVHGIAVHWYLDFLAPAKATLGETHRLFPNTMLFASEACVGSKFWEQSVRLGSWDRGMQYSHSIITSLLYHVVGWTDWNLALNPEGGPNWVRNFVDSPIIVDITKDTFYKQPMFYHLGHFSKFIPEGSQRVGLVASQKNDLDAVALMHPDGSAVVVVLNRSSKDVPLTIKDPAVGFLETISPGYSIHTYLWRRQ
- Experiment: qHTS Assay for Inhibitors and Activators of N370S glucocerebrosidase as a Potential Chaperone Treatment of Gaucher Disease: Primary Screen Confirmation
- Experimental Conditions: N370S glucocerebrosidase enzyme activity, fluorogenic substrate; series mostly up to 54 µM
Inconclusive results are not listed. Activity calls are given as the source filed them. Calls come from the whole dose curve; as a rule, active = well fitted curve in the direction sought with a large enough effect; inconclusive = small, poorly fitted or top-dose-only effect, or another doubt; inactive = no such curve, though single readings can be large or run the other way.
One label from this list, please: true (1) for active, false (0) for inactive

Field: example entries. Status: answers known.
- Smiles Data: "Cc1cc2[nH]c(=O)c(=O)[nH]c2cc1S(=O)(=O)N1CCN(c2cccc(C(F)(F)F)c2)CC1"
  Cat: "true (1)"
- Smiles Data: "Cc1cccc(NC(=S)Nc2cccc(C)n2)n1"
  Cat: "false (0)"
- Smiles Data: "S=C(NCCCc1cnc[nH]1)NCCCN(Cc1ccc(Cl)cc1)c1ncc(Br)cn1"
  Cat: "true (1)"
- Smiles Data: "NCCCN(Cc1ccc(Cl)c(Cl)c1)c1ccccn1"
  Cat: "false (0)"

INPUT: Fill in: this test's call for CC(C)(C)C(=O)OCCNc1nc(-c2ccccc2)nc2ccccc12 is ___
OUTPUT: true (1)

INPUT: Fill in: this test's call for Cc1nc2nc(-c3ccc(F)cc3)cn2nc1C is ___
OUTPUT: false (0)
